So I've got a bunch of molecules here, and I need their GI50 values.
test system: UACC-62; experiment: NCI tumour cell line growth inhibition, 48 h
Calls of active or inactive are those of the source. Rule as the data show it: active = GI50 up to about 1.1 µM and inactive = higher.

Consider the reported GI50 for these molecules:
{"columns": ["molecule", "value.kind", "result"],
 "data": [
  ["Cc1ccc(S(=O)(=O)NNC(=O)c2cc(C)c(C)cc2N)cc1", "GI50", "> 100 µM (inactive)"],
  ["CC(C)=CC(=O)c1c(C(=O)O)nc2ccccc2[n+]1[O-]", "GI50", "> 100 µM (inactive)"],
  ["O=[N+]([O-])c1cccc(/N=C2\\c3ccccc3CN2c2cccc([N+](=O)[O-])c2)c1", "GI50", "> 100 µM (inactive)"],
  ["CCOc1ccc(/C=N/[N+](C)(C)C)cc1OCC", "GI50", "> 10 µM (inactive)"],
  ["N#C/C(=C\\c1cccc(Br)c1)c1nc2ccccc2c(=O)[nH]1", "GI50", "76.2 µM (inactive)"],
  ["COC(=O)CCc1ccc2c(c1)CC1(Cc3ccccc3C1)C2", "GI50", "57.3 µM (inactive)"],
  ["O=C1N2CCC[C@H]2CS1(=O)=O", "GI50", "16.4 µM (inactive)"],
  ["CS(=O)(=O)NC12CCC(c3ccccc31)c1ccccc12", "GI50", "> 100 µM (inactive)"],
  ["CC1(C)CCC[C@@]2(C)C1CC[C@H]1CC(O)C3(C)CCC12C3 (stereo partly specified)", "GI50", "15.8 µM (inactive)"],
  ["COc1ccc2c(c1)CC[C@@H]1C2CC[C@]2(C)C(=C=CP(=O)(O)O)CCC12 (stereo partly specified)", "GI50", "> 100 µM (inactive)"]
]}

API: the following record is the query input.
Value of measured GI50 for the entry CC(=O)c1c(C)cc2cccc(OC3OC(CO)C(O)C(O)C3O)c2c1O.CC1OC(O)C(O)C(O)C1O (stereo unspecified) : > 100 µM (inactive)

###

tested on: BT-549; experiment: NCI tumour cell line growth inhibition, 48 h
Calls of active or inactive are those of the source. No stated cut-off is given here; in the data, active = GI50 up to about 1.1 µM and inactive = higher.
Outcome (select one): Y (active), N (inactive)

Solved entries (count: 10):
{"columns": ["compound", "study.target", "cat"],
 "data": [
  ["COc1ccc(/C=C2\\CCC(CN(C)C)C2=O)cc1OC (stereo not drawn)", "BT-549", "N"],
  ["CCOC(=O)c1nc2ccccc2nc1Oc1ccc(F)cc1", "BT-549", "N"],
  ["CC(C)N1C=[N+](C(C)C)CC1", "BT-549", "N"],
  ["Cc1ccc(/C=C/C(=N/NC(=O)N/N=C(/C=C/c2ccc(C)cc2)C(C)(C)CN2CCCCC2)C(C)(C)CN2CCCCC2)cc1", "BT-549", "N"],
  ["CC(C)(C)CC(N)=O", "BT-549", "N"],
  ["C/C(=C/CC[C@]1(CO)CC[C@]2(C)[C@H](CC[C@@H]3[C@@]4(C)CC[C@H](OC5OC(CO)C(O)C(O)C5OC5OC(CO)C(O)C(O)C5O)C(C)(C)[C@@H]4CC[C@]32C)[C@H]1O)CO (stereo partly drawn)", "BT-549", "N"],
  ["Clc1cc2ncn(C3CCCCO3)c2cc1Cl (stereo not drawn)", "BT-549", "N"],
  ["C[n+]1c(-c2ccccc2)cc2/c(=C\\c3ccc([N+](=O)[O-])cc3)c3ccccc3n21", "BT-549", "Y"],
  ["CC1(C)CC(=O)c2c(-c3ccc(Cl)cc3)c(C#N)c(=S)n(C3OC(CO)C(O)C(O)C3O)c2C1 (stereo not drawn)", "BT-549", "N"],
  ["O=c1[nH]c2ccccc2c(=O)c2cc3ccccc3cc12", "BT-549", "N"]
]}

How was CC(=O)c1c(C)cc2cccc(OC3OC(CO)C(O)C(O)C3O)c2c1O.CC1OC(O)C(O)C(O)C1O (stereo not drawn) classified in this test?
N

How was CCOc1ccc(/C=N/[N+](C)(C)C)cc1OCC classified in this test?
N

How was Cc1ccc2c(c1)C(C1Cc3c(C)cccc3C1=O)OC2=O (stereo not drawn) classified in this test?
N

###

system: PC-3; test: NCI tumour cell line growth inhibition, 48 h
The source made the active and inactive calls. Rule as the data show it: active = GI50 up to about 1.1 µM and inactive = higher.
Outcome (select one): active, inactive

Solved entries (count: 3):
{"columns": ["compound", "study.target", "cat"],
 "data": [
  ["COc1ccc(C(=O)c2nc3ccccc3nc2N2CCN(c3ccccc3)CC2)cc1OC", "PC-3", "inactive"],
  ["Cc1ccc(SCC(CSCCO)OCn2cnc3c2N=C(N)NC32OCCO2)cc1 (centres undefined)", "PC-3", "inactive"],
  ["CCCCC(Sc1cc(Cl)c(C)cc1S(=O)(=O)Nc1nc(N)n[nH]1)C(=O)OC (centres undefined)", "PC-3", "inactive"]
]}

Then there is this compound:
How was COc1ccc2oc(=O)c(-c3csc(-c4ccccc4)n3)cc2c1 classified in this test?
inactive

###

test system: K562; experiment: NCI tumour cell line growth inhibition, 48 h
Calls of active or inactive are those of the source. Cut-off read from the data, not from the text of the source: active = GI50 up to about 1.1 µM and inactive = higher.
So I've got a bunch of compounds here, and I need their GI50 values.

{"columns": ["compound", "GI50"],
 "data": [
  ["C=C(CO)C(=O)OC1CC(=C)C2CC(O)C(C)C2C2OC(=O)C(=C)C12 (stereo not given)", "31.3 µM (inactive)"],
  ["COC1CC(n2ccc(=O)[nH]c2=O)OC1CO (stereo not given)", "> 100 µM (inactive)"]
]}

Hi! Can you tell me GI50 for each of these compounds?
1. CCOC(=O)c1c(C)c(C)n2c1NC(=O)C2
2. c1ccc2[nH]c(CNc3ccc(C4C[Se]N=N4)cc3)nc2c1 (stereo not given)
3. C=C1[C@H]2O[C@H]2[C@@H](OC(C)=O)[C@@]2(C)[C@@H](OC(C)=O)C[C@@H](OC(=O)CCC)[C@@](C)(O)[C@@H]2[C@@H](OC(C)=O)[C@]2(O)[C@@H](C)C(=O)O[C@H]2[C@H]1Cl

> 100 µM (inactive)
27.9 µM (inactive)
> 100 µM (inactive)

Hi! Can you tell me GI50 for each of these compounds?
1. CS/C(N)=N/c1cccc2ccccc12
2. OCC1OC(N2CCN(C3OC(CO)C(O)C(O)C3O)CC2)C(O)C(O)C1O (stereo not given)

1. > 10 µM (inactive)
2. > 100 µM (inactive)

Hi! Can you tell me GI50 for each of these compounds?
1. S=c1c2cc(I)ccc2nc(S)n1Cc1ccccc1
2. CCCn1c2ccccc2c2ccc3c(c21)C(=O)C=CC3=O
3. N#CCC(=O)N/N=C(\CCN1CCCC1)CC(c1ccccc1)c1c(O)c2ccccc2oc1=O (stereo not given)

1: 3.54 µM (inactive); 2: 0.561 µM (active); 3: 62.1 µM (inactive)

###

So I've got a bunch of molecules here, and I need their GI50 values.
test system: HCT-116; test: NCI tumour cell line growth inhibition, 48 h
The source made the active and inactive calls. No stated cut-off is given here; in the data, active = GI50 up to about 1.1 µM and inactive = higher.

{"columns": ["molecule", "result"],
 "data": [
  ["C[n+]1ccccc1/C1=c2\\cc/c([nH]2)=C(\\c2cccc[n+]2C)C2=N/C(=C(/c3cccc[n+]3C)C3C=CC(N3)/C(c3cccc[n+]3C)=C3/C=CC1=N3)C=C2", "46.3 µM (inactive)"],
  ["CC(C#N)NCc1ccc(C(C)NC(C)C#N)cc1 (centres undefined)", "> 100 µM (inactive)"],
  ["CCOC(=O)c1c(OCC)[nH]c(=O)c(C(c2cccs2)c2c(O)c(C(=O)OCC)c(OCC)[nH]c2=O)c1O", "17.5 µM (inactive)"]
]}

Hi! Can you tell me GI50 for each of these molecules?
1. O=[N+]([O-])c1cccc(/N=C2\c3ccccc3CN2c2cccc([N+](=O)[O-])c2)c1
2. OC12C3C4CC5C(C4[C@@H]1Br)C2[C@@](O)(c1c(F)c(F)c(F)c(F)c1F)C53 (some centres undefined)
3. OCC1OC(N2CCN(C3OC(CO)C(O)C(O)C3O)CC2)C(O)C(O)C1O (centres undefined)
4. O=C(CSCC(=O)N/N=C\c1ccccc1F)N/N=C\c1ccccc1F
5. CSc1ccsc1-c1sc(-c2cc(SC)c(-c3sc(-c4cc(SC)c(-c5sccc5SC)s4)cc3SC)s2)cc1SC
6. CNc1ccc(OC)cc1S(=O)(=O)c1ccccc1[N+](=O)[O-]

1. > 100 µM (inactive)
2. 30.8 µM (inactive)
3. > 100 µM (inactive)
4. > 100 µM (inactive)
5. 75.9 µM (inactive)
6. > 100 µM (inactive)

###

test system: SK-OV-3; assay: NCI tumour cell line growth inhibition, 48 h
Calls of active or inactive are those of the source. No stated cut-off is given here; in the data, active = GI50 up to about 1.1 µM and inactive = higher.
value.kind: GI50

Consider the reported GI50 for these compounds:
{"columns": ["compound", "study.target", "GI50"],
 "data": [
  ["CC1=NN(c2ccccc2)C(=O)/C1=C/c1ccc(O)cc1", "SK-OV-3", "> 100 µM (inactive)"],
  ["O=C(Cc1ccccc1)NN1C(=O)/C(=C\\c2cccc([N+](=O)[O-])c2)S/C1=N\\c1ccccc1", "SK-OV-3", "> 100 µM (inactive)"],
  ["CC(C)C(O)(C(C)C)C(C)C", "SK-OV-3", "> 100 µM (inactive)"],
  ["c1ccc2c(c1)CCN1CCc3c([nH]c4ccccc34)C21 (configuration not stated)", "SK-OV-3", "47 µM (inactive)"],
  ["CO/N=C/c1cc(OC)c(OC)c(OC)c1", "SK-OV-3", "> 100 µM (inactive)"]
]}

Hi! Can you tell me GI50 for each of these compounds?
1. CCCCCCCCCCCCCCCCCC(=O)NCC(COP(=O)(O)O)OCC (configuration not stated)
2. CC(NC1=CC(=O)c2ncccc2C1=O)C(O)c1ccccc1 (configuration not stated)

1. 34.9 µM (inactive)
2. 16.1 µM (inactive)
